- ASSAY SYSTEM: T1, human CD105 (R&D Systems, Catalog No. 1097-EN) (human, UniProt P17813 26-586)
- T1 construct: Captured on the plate by mouse anti-human CD105 (Southern Biotechnologies 9811-01); also called endoglin
- T1 sequence (looked up): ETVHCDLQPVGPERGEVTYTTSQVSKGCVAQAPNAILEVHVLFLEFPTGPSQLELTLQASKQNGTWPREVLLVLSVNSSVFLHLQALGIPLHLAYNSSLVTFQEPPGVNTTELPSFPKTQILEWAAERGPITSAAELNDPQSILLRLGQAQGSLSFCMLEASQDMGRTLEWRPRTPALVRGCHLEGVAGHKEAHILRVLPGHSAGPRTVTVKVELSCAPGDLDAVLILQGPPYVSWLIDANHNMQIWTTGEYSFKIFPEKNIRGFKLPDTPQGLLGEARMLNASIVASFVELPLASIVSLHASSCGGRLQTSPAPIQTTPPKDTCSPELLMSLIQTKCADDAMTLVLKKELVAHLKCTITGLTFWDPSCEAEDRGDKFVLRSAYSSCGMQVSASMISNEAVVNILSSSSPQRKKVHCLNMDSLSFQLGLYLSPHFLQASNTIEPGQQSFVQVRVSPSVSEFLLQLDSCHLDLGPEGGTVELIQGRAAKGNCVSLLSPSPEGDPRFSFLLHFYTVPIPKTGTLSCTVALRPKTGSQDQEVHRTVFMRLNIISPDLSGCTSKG
- TEST DETAILS: competition ELISA on captured human CD105; competitor biotinylated chimeric anti-CD105
REPORTED PROPERTY: Relative IC50 (fold of chimeric anti-endoglin antibody)

Known results for binders:
BINDER	RECORDED RESULT
VK2SSVH1Q (antibody, V domains shown, IgG1 heavy chain, kappa light chain) VH: EVQLVESGGGLVKPGGSLRLSCAASGFTFSDAWMDWVRQAPGKGLEWVGEIRSQASNHATYYAESVKGRFTISRDDSKNTLYLQMNSLKTEDTAVYYCTRWRRFFDSWGQGTLVTVSS VL: DIQLTQSPSSLSASVGDRVTISCRASSSVSYMHWYQQKPGKAPKPWIYASSNLASGVPSRFSGSGSGTDYTLTISSLQPEDFATYYCQQWSSNPLTFGGGTKVEIK	1.21 fold relative to chimeric
VK2ASVH1A (antibody, V domains shown, IgG1 heavy chain, kappa light chain) VH: EVQLVESGGGLVKPGGSLRLSCAASGFTFSDAWMDWVRQAPGKGLEWVAEIRSKASNHATYYAESVKGRFTISRDDSKNTLYLQMNSLKTEDTAVYYCTRWRRFFDSWGQGTLVTVSS VL: DIQLTQSPSSLSASVGDRATITCRASSSVSYMHWYQQKPGKAPKPWIYASSNLASGVPSRFSGSGSGTDYTLTISSLQPEDFATYYCQQWSSNPLTFGGGTKVEIK	1.41 fold relative to chimeric
VK1AAVH1R (antibody, V domains shown, IgG1 heavy chain, kappa light chain) VH: EVQLVESGGGLVKPGGSLRLSCAASGFTFSDAWMDWVRQAPGKGLEWVGEIRSRASNHATYYAESVKGRFTISRDDSKNTLYLQMNSLKTEDTAVYYCTRWRRFFDSWGQGTLVTVSS VL: DIQMTQSPSSLSASVGDRATITCRASSSVSYMHWYQQKPGKAPKPWAYATSNLASGVPSRFSGSGSGTDYTLTISSLQPEDFATYYCQQWSSNPLTFGGGTKVEIK	1.05 fold relative to chimeric

Pending binder:
// query Relative IC50 (fold of chimeric anti-endoglin antibody) value for entry VK2SSVH1S (antibody, V domains shown, IgG1 heavy chain, kappa light chain) VH: EVQLVESGGGLVKPGGSLRLSCAASGFTFSDAWMDWVRQAPGKGLEWVSEIRSKASNHATYYAESVKGRFTISRDDSKNTLYLQMNSLKTEDTAVYYCTRWRRFFDSWGQGTLVTVSS VL: DIQLTQSPSSLSASVGDRVTISCRASSSVSYMHWYQQKPGKAPKPWIYASSNLASGVPSRFSGSGSGTDYTLTISSLQPEDFATYYCQQWSSNPLTFGGGTKVEIK
1.21 fold relative to chimeric
